tested on: Hepatocellular carcinoma (HepG2/C3A) cells; assay: MTT cytotoxicity assay (DL50); assay type: cell-based; conditions: 24 hours of incubation
Overview of reported IC50 across a group of compounds:
quantityMeasured: IC50 (µM)

compound: COc1c2cccc1Cc1cccc(c1OCc1nccn1C)Cc1cccc(c1OC)Cc1cccc(c1OCc1nccn1C)C2
quantityMeasured: IC50
measurement: 23

compound: CCCOc1c2cccc1Cc1cccc(c1OCc1nc3ccccc3n1C)Cc1cccc(c1OCCC)Cc1cccc(c1OCc1nc3ccccc3n1C)C2
quantityMeasured: IC50
measurement: 128

compound: Oc1c(I)cc(Cl)c2cccnc12 [Clioquinol, clioquinol, reference compound]
quantityMeasured: IC50
measurement: 67
